protocol.text: Phase 1 DDI study: single-dose zanubrutinib PK alone and with steady-state rifabutin (NCT04470908)
Type: in vivo, human
conditions: human, plasma, oral, 320 mg zanubrutinib + 300 mg rifabutin; arithmetic mean (SD)
test.readout: half-life (h)
Numeric only. Scale: h

Endpoint output: half-life of C=CC(=O)N1CCC([C@@H]2CCNc3c(C(N)=O)c(-c4ccc(Oc5ccccc5)cc4)nn32)CC1 . Value?
7

---

protocol.text: Phase 1 DDI study: single-dose zanubrutinib PK alone and with steady-state rifabutin (NCT04470908)
Format: in vivo, human
conditions: human, plasma, oral, 320 mg
test.readout: Cmax (ng/mL)
Numeric only. Scale: ng/mL

Endpoint output: Cmax of C=CC(=O)N1CCC([C@@H]2CCNc3c(C(N)=O)c(-c4ccc(Oc5ccccc5)cc4)nn32)CC1 . Value?
489
